Provenance of the data: patent US20230212222A1

A short record of ECmax (-fold induction over basal) observed with GPR39 (Homo sapiens) follows.
Square brackets hold non-standard residues; d marks the D form. Peptide text beside a SMILES is read from it. * marks the point of attachment. His(Trt) = N[C@@H](Cc1cn(C(c2ccccc2)(c2ccccc2)c2ccccc2)cn1)C(=O)O; His(τ-CHPh2) = N[C@@H](Cc1cn(C(c2ccccc2)c2ccccc2)cn1)C(=O)O; Biotin = O=C1N[C@H]2[C@H](CS[C@H]2CCCCC(=O)*)N1; dPhe(4-CF3) = N[C@H](Cc1ccc(C(F)(F)F)cc1)C(=O)O; dPhe(4-Me) = Cc1ccc(C[C@@H](N)C(=O)O)cc1; Phe(4-Me) = Cc1ccc(C[C@H](N)C(=O)O)cc1; dPhe(4-F) = N[C@H](Cc1ccc(F)cc1)C(=O)O; Myristoyl = CCCCCCCCCCCCCC(=O)*; Octanoyl = CCCCCCCC(=O)*; Boc = CC(C)(C)OC(=O)*

COMPOUND	OBSERVED
CCCCCCCC(=O)NCCCC[C@H](NC(=O)[C@H](Cc1cn(C(c2ccccc2)c2ccccc2)cn1)NC(=O)CCCC[C@@H]1SC[C@@H]2NC(=O)N[C@@H]21)C(=O)N[C@@H](Cc1ccc(C)cc1)C(=O)N[C@@H](Cc1ccc(O)cc1)C(=O)O [HKFY-72] (Biotin-[His(τ-CHPh2)]K(Octanoyl)[Phe(4-Me)]Y-OH)	10.4 ± 1.12 -fold induction over basal
CCCCCCCC(=O)NCCCC[C@H](NC(=O)[C@@H](N)Cc1cn(CCC2CCCCC2)cn1)C(=O)N[C@@H](Cc1ccccc1)C(=O)N[C@@H](Cc1ccc(O)cc1)C(=O)O [HKFY-11]	22 ± 2.2 -fold induction over basal
CCCCCCCC(=O)NCCCC[C@H](NC(=O)[C@@H](N)Cc1cn(C(c2ccccc2)(c2ccccc2)c2ccccc2)cn1)C(=O)N[C@@H](Cc1ccccc1)C(=O)N[C@@H](Cc1c[nH]c2ccccc12)C(=O)O [HKFY-46] (H-[His(Trt)]K(Octanoyl)FW-OH)	20 ± 0.28 -fold induction over basal
CCCCCCCC(=O)NCCCC[C@H](NC(=O)[C@@H](N)Cc1cn(C(c2ccccc2)(c2ccccc2)c2ccccc2)cn1)C(=O)N[C@@H](Cc1ccccc1)C(=O)N[C@@H](Cc1ccc(O)cc1)C(=O)O [HKFY-1] (H-[His(Trt)]K(Octanoyl)FY-OH)	20.51 ± 0.57 -fold induction over basal
CCCCCCCC(=O)NCCCC[C@H](NC(=O)[C@@H](N)Cc1cn(C(c2ccccc2)(c2ccccc2)c2ccccc2)cn1)C(=O)N[C@H](Cc1ccc(F)cc1)C(=O)N[C@@H](Cc1ccc(O)cc1)C(=O)O [HKFY-28] (H-[His(Trt)]K(Octanoyl)[dPhe(4-F)]Y-OH)	22.95 ± 2.58 -fold induction over basal

Log: GPR39 (Homo sapiens), compound CCCCCCCC(=O)NCCCC[C@H](NC(=O)[C@H](Cc1c[nH]c2ccccc12)NC(=O)OC(C)(C)C)C(=O)N[C@H](Cc1ccc(C)cc1)C(=O)N[C@@H](Cc1ccc(O)cc1)C(=O)O [HKFY-78] (Boc-WK(Octanoyl)[dPhe(4-Me)]Y-OH) , ECmax (-fold induction over basal) = 11.4 ± 1.54 -fold induction over basal

Log: GPR39 (Homo sapiens), compound CCCCCCCC(=O)NCCCC[C@H](NC(=O)[C@@H](N)Cc1cn(C(c2ccccc2)c2ccccc2)cn1)C(=O)N[C@H](Cc1ccc(C)cc1)C(=O)N[C@@H](Cc1ccc(O)cc1)C(=O)O [HKFY-34] , ECmax (-fold induction over basal) = 22.39 ± 4.59 -fold induction over basal

Log: GPR39 (Homo sapiens), compound CCCCCCCC(=O)NCCCC[C@H](NC(=O)[C@@H](N)Cc1cn(C(c2ccccc2)(c2ccccc2)c2ccccc2)cn1)C(=O)N[C@@H](Cc1ccc(O)cc1)C(=O)N[C@@H](Cc1ccccc1)C(=O)O [HKFY-47] (H-[His(Trt)]K(Octanoyl)YF-OH) , ECmax (-fold induction over basal) = 13 ± 1.7 -fold induction over basal

Log: GPR39 (Homo sapiens), compound CCCCCCCCCCCCCC(=O)NCCCC[C@H](NC(=O)[C@@H](N)Cc1cn(C(c2ccccc2)(c2ccccc2)c2ccccc2)cn1)C(=O)N[C@@H](Cc1ccccc1)C(=O)N[C@@H](Cc1ccc(O)cc1)C(=O)O [HKFY-26] (H-[His(Trt)]K(Myristoyl)FY-OH) , ECmax (-fold induction over basal) = 19.82 ± 0.57 -fold induction over basal

Log: GPR39 (Homo sapiens), compound CCCCCCCC(=O)NCCCC[C@H](NC(=O)[C@@H](N)Cc1cn(C(c2ccccc2)(c2ccccc2)c2ccccc2)cn1)C(=O)N[C@H](Cc1ccc(C(F)(F)F)cc1)C(=O)N[C@@H](Cc1ccc(O)cc1)C(=O)O [HKFY-76] (H-[His(Trt)]K(Octanoyl)[dPhe(4-CF3)]Y-OH) , ECmax (-fold induction over basal) = 14.2 ± 3.75 -fold induction over basal

Log: GPR39 (Homo sapiens), compound CCCCCCCC(=O)NCCCC[C@H](NC(=O)[C@@H](N)Cc1cn(C(c2ccccc2)c2ccc(OC)cc2)cn1)C(=O)N[C@H](Cc1ccc(C)cc1)C(=O)N[C@@H](Cc1ccc(O)cc1)C(=O)O (stereo partly drawn) [HKFY-64] , ECmax (-fold induction over basal) = 16 ± 1.5 -fold induction over basal

====

# MEASURED_ON: GPR39 (Homo sapiens, UniProt O43194)
# Sequence (O43194 1-453): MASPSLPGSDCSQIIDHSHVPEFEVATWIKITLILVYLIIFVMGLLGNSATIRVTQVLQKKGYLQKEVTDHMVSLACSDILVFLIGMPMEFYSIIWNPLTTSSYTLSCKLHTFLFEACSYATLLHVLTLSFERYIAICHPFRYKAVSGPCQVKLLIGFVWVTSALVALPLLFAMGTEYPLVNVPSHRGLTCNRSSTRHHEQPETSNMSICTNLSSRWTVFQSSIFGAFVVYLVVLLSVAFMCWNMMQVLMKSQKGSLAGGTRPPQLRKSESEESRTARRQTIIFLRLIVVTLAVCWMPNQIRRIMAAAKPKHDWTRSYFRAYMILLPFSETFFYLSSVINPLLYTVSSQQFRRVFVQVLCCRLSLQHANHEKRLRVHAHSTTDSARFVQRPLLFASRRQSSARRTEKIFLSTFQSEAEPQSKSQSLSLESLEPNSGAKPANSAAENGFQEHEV
# PROCEDURE_SUMMARY: luciferase assay system (SRE luciferase reporter gene) for GPR39 in CV-1 cells
# CONDITION_LABEL: EC50, CV-1 cells, GPR39 and SRE luciferase adenovirus, treated 6 hours, luminometer
Square brackets hold non-standard residues; d marks the D form. Peptide text beside a SMILES is read from it. * marks the point of attachment. His(Trt) = N[C@@H](Cc1cn(C(c2ccccc2)(c2ccccc2)c2ccccc2)cn1)C(=O)O; dHis(Trt) = N[C@H](Cc1cn(C(c2ccccc2)(c2ccccc2)c2ccccc2)cn1)C(=O)O; His(τ-CHPh2) = N[C@@H](Cc1cn(C(c2ccccc2)c2ccccc2)cn1)C(=O)O; Biotin = O=C1N[C@H]2[C@H](CS[C@H]2CCCCC(=O)*)N1; sY = N[C@@H](Cc1ccc(OS(=O)(=O)O)cc1)C(=O)O; dPhe(4-Cl) = N[C@H](Cc1ccc(Cl)cc1)C(=O)O; dPhe(4-Me) = Cc1ccc(C[C@@H](N)C(=O)O)cc1; Phe(4-Me) = Cc1ccc(C[C@H](N)C(=O)O)cc1; Decanoyl = CCCCCCCCCC(=O)*; Octanoyl = CCCCCCCC(=O)*
Quick list: pEC50 per entry.
Kindly note that pEC50 refers to -log10 of the concentration in mol/L and answer with the value alone.

COMPOUND	pEC50
CCCCCCCC(=O)NCCCC[C@H](NC(=O)[C@@H](N)Cc1cn(C(c2ccccc2)c2ccccc2)cn1)C(=O)N[C@@H](Cc1ccccc1)C(=O)N[C@@H](Cc1ccc(O)cc1)C(=O)O [HKFY-33] (H-[His(τ-CHPh2)]K(Octanoyl)FY-OH)	6.82
CCCCCCCC(=O)NCCCC[C@H](NC(=O)[C@H](Cc1cn(C(c2ccccc2)c2ccccc2)cn1)NC(=O)CCCC[C@@H]1SC[C@@H]2NC(=O)N[C@@H]21)C(=O)N[C@@H](Cc1ccc(C)cc1)C(=O)N[C@@H](Cc1ccc(O)cc1)C(=O)O [HKFY-72] (Biotin-[His(τ-CHPh2)]K(Octanoyl)[Phe(4-Me)]Y-OH)	7.96
CCCCCCCC(=O)NCCCC[C@H](NC(=O)[C@H](N)Cc1cn(C(c2ccccc2)(c2ccccc2)c2ccccc2)cn1)C(=O)N[C@H](Cc1ccc(Cl)cc1)C(=O)N[C@H](Cc1ccc(O)cc1)C(=O)O [HKFY-14] (H-[dHis(Trt)]K(Octanoyl)[dPhe(4-Cl)][dY]-OH)	7.70
CCCCCCCC(=O)NCCCC[C@H](NC(=O)[C@H](Cc1cn(C(c2ccccc2)(c2ccccc2)c2ccccc2)cn1)NC(=O)[C@H](CO)NC(=O)CN)C(=O)N[C@@H](Cc1ccccc1)C(=O)N[C@@H](Cc1ccc(O)cc1)C(=O)O [HKFY-37] (H-GS[His(Trt)]K(Octanoyl)FY-OH)	5.74
CCCCCCCC(=O)NCCCC[C@H](NC(=O)[C@H](N)Cc1cn(C(c2ccccc2)(c2ccccc2)c2ccccc2)cn1)C(=O)N[C@H](Cc1ccc(C)cc1)C(=O)N[C@@H](Cc1ccc(O)cc1)C(=O)O [HKFY-31] (H-[dHis(Trt)]K(Octanoyl)[dPhe(4-Me)]Y-OH)	7.70
CCCCCCCC(=O)NCCCC[C@H](NC(=O)[C@@H](N)Cc1cn(C(c2ccccc2)c2ccccc2)cn1)C(=O)N[C@H](Cc1ccc(C)cc1)C(=O)N[C@@H](Cc1ccc(OS(=O)(=O)O)cc1)C(=O)O [HKFY-35] (H-[His(τ-CHPh2)]K(Octanoyl)[dPhe(4-Me)][sY]-OH)	6.55

Reported pEC50 ( CCCCCCCCCC(=O)NCCCC[C@H](NC(=O)[C@@H](N)Cc1cn(C(c2ccccc2)(c2ccccc2)c2ccccc2)cn1)C(=O)N[C@@H](Cc1ccccc1)C(=O)N[C@@H](Cc1ccc(O)cc1)C(=O)O [HKFY-24] (H-[His(Trt)]K(Decanoyl)FY-OH) ) = 6.62

Reported pEC50 ( CCCCCCCC(=O)NCCCC[C@H](NC(=O)[C@@H](N)Cc1cn(C(c2ccccc2)c2ccc(OC)cc2)cn1)C(=O)N[C@H](Cc1ccc(C)cc1)C(=O)N[C@@H](Cc1ccc(O)cc1)C(=O)O (some centres unmarked) [HKFY-64] ) = 8.15
